The measured values listed here are drawn from paper PMC5540273.

Test system: NIM1
Construct: gene MGC42105
MEASUREMENT_SETUP: concentration: 1 μM, replicates: in singlicate; n = 1;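 further: KINOMEscan kinase panel screen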
REPORTED_PROPERTY: %Inh (%)

COMPOUND: Cl.NC(=O)c1cccc(Nc2nccc(Nc3ccc(Oc4c(Cl)cccc4Cl)c(Cl)c3)n2)c1 [GW659009]
TARGET_UNDER_TEST: NIM1
TEST_VALUE: 7

COMPOUND: O=C(Nc1n[nH]c2nc(-c3ccc(O)cc3)ccc12)C1CC1 [SB-710363]
TARGET_UNDER_TEST: NIM1
TEST_VALUE: 0

COMPOUND: c1ccc(-c2n[nH]cc2Nc2ccnc3ccccc23)nc1 [GW694077]
TARGET_UNDER_TEST: NIM1
TEST_VALUE: 25

COMPOUND: Nc1n[nH]c2cnc(-c3ccccc3)cc12 [SB-642124]
TARGET_UNDER_TEST: NIM1
TEST_VALUE: 29

COMPOUND: Nc1ncnc2c1nc(-c1ccccc1)n2-c1ccccc1 [SKF-97293]
TARGET_UNDER_TEST: NIM1
TEST_VALUE: 66

COMPOUND: c1ccc(Oc2ccc(Nc3ccnc4cc(-c5ccc(CNCCN6CCOCC6)o5)ccc34)cc2)nc1 [GW567145]
TARGET_UNDER_TEST: NIM1
TEST_VALUE: 20

COMPOUND: CCCCc1nn2ncccc2c1-c1ccnc(Nc2ccc(N3CCN(C)CC3)cc2)n1 [GW684941]
TARGET_UNDER_TEST: NIM1
TEST_VALUE: 47

COMPOUND: Cl.c1ccc(-c2ccc3c(Nc4ccc5[nH]ncc5c4)ccnc3c2)nc1 [GW440137]
TARGET_UNDER_TEST: NIM1
TEST_VALUE: 14

COMPOUND: CSc1cccc2c(-c3ccncn3)c(-c3ccc(F)cc3)nn12 [GW514786]
TARGET_UNDER_TEST: NIM1
TEST_VALUE: 19

----------
System: MAP4K2
MEASUREMENT_SETUP: concentration: 1 μM, replicates: in singlicate; n = 1
Please enter Fulfilled where %Inh is greater than or equal to 10%, and Not fulfilled where it is lower.

COMPOUND: COc1cc(Nc2ncc3c(C)nc(-c4cc5ccccc5[nH]4)n3n2)cc(OC)c1OC
TARGET_UNDER_TEST: MAP4K2
CLASS_LABEL: Not fulfilled
//
COMPOUND: Cc1ccc(F)c(C(=O)Nc2cccc(-c3nn4ccccc4c3-c3ccnc(Nc4cccc(F)c4)n3)c2)c1F
TARGET_UNDER_TEST: MAP4K2
CLASS_LABEL: Not fulfilled
//
COMPOUND: COCCOCCOc1cc2ncc3c4ccc(C#N)cc4[nH]c3c2cc1OC
TARGET_UNDER_TEST: MAP4K2
CLASS_LABEL: Fulfilled
//
COMPOUND: CN1CCN(CCCNc2nccc(-c3c(-c4ccc(F)cc4)nn4cc(C(F)(F)F)ccc34)n2)CC1
TARGET_UNDER_TEST: MAP4K2
CLASS_LABEL: Not fulfilled
//
COMPOUND: COc1cc(Nc2nccc(-c3c(-c4cccc(NC(=O)c5c(F)cccc5F)c4)nn4ccccc34)n2)cc(OC)c1OC
TARGET_UNDER_TEST: MAP4K2
CLASS_LABEL: Fulfilled
//
COMPOUND: Oc1cc(Nc2ccnc3cc(I)ccc23)ccc1F
TARGET_UNDER_TEST: MAP4K2
CLASS_LABEL: Not fulfilled
//
COMPOUND: COC(=O)Nc1nc2ccc(Oc3ccc(NC(=O)Nc4cc(C(F)(F)F)ccc4F)cc3)cc2n1C.Cl
TARGET_UNDER_TEST: MAP4K2
CLASS_LABEL: Not fulfilled
//
COMPOUND: Cc1ccc(C(=O)Nc2ccc(Nc3ccnc4cc(-c5nccs5)ccc34)cc2O)cc1.Cl
TARGET_UNDER_TEST: MAP4K2
CLASS_LABEL: Not fulfilled
//
COMPOUND: Nc1ncnc2c1nc(-c1ccccc1)n2-c1ccccc1
TARGET_UNDER_TEST: MAP4K2
CLASS_LABEL: Fulfilled
//
COMPOUND: COc1cc(Nc2nccc(N3CCC(NC(=O)Nc4cccc(C(C)=O)c4)C3)n2)cc(OC)c1OC (stereo not shown)
TARGET_UNDER_TEST: MAP4K2
CLASS_LABEL: Not fulfilled
//
COMPOUND: Cn1cc(-c2ccc3c(c2)CCN3C(=O)Cc2cccc(F)c2)c2c(N)ncnc21
TARGET_UNDER_TEST: MAP4K2
CLASS_LABEL: Fulfilled
//
COMPOUND: Cc1cccc(NC(=O)Nc2ccc(Oc3ncnc4ccn(C)c34)cc2)c1
TARGET_UNDER_TEST: MAP4K2
CLASS_LABEL: Not fulfilled
//
COMPOUND: c1ccc(Oc2ccc(Nc3ccnc4cc(-c5ccc(CNCCN6CCOCC6)o5)ccc34)cc2)nc1
TARGET_UNDER_TEST: MAP4K2
CLASS_LABEL: Not fulfilled
//
COMPOUND: Cn1cc(-c2ccc3c(c2)CCN3C(=O)Cc2cccc(Cl)c2)c2c(N)ncnc21
TARGET_UNDER_TEST: MAP4K2
CLASS_LABEL: Not fulfilled
//
COMPOUND: Fc1ccc(-c2ncn(C3CCNCC3)c2-c2ccnc(Oc3ccc(-c4ccccc4)cc3)n2)cc1
TARGET_UNDER_TEST: MAP4K2
CLASS_LABEL: Fulfilled
//
COMPOUND: CN(C)S(=O)(=O)c1cc(-c2ccc3nccc(-c4cccc(S(N)(=O)=O)c4)c3c2)cnc1N
TARGET_UNDER_TEST: MAP4K2
CLASS_LABEL: Fulfilled
//
COMPOUND: CN1CCN(Cc2cccc(-c3ccc4c(Nc5ccc(Oc6ccccc6)cc5)ccnc4c3)c2)CC1
TARGET_UNDER_TEST: MAP4K2
CLASS_LABEL: Not fulfilled
//
COMPOUND: COc1cc(Nc2nccc(N3CCC(NC(=O)c4cc5ccccc5s4)C3)n2)cc(OC)c1OC (stereo not shown)
TARGET_UNDER_TEST: MAP4K2
CLASS_LABEL: Fulfilled
//
COMPOUND: CC(C)c1nc(-c2cccc(NS(=O)(=O)c3c(F)cccc3F)c2F)c(-c2ccnc(Nc3ccc(N4CCOCC4)nc3)n2)s1
TARGET_UNDER_TEST: MAP4K2
CLASS_LABEL: Not fulfilled
//
COMPOUND: O=C(Nc1cccc(-c2nn3ccccc3c2-c2ccnc(Nc3cccc(C(F)(F)F)c3)n2)c1)c1c(F)cccc1F
TARGET_UNDER_TEST: MAP4K2
CLASS_LABEL: Not fulfilled
//
COMPOUND: Cc1occc1-c1ncc(OC[C@@H](N)Cc2c[nH]c3ccccc23)cc1-c1ccc2[nH]nc(C)c2c1.O=C(O)C(F)(F)F
TARGET_UNDER_TEST: MAP4K2
CLASS_LABEL: Fulfilled
//
COMPOUND: CCn1c(-c2nonc2N)nc2c(C#CC(C)(C)O)nc(OC[C@H](N)c3ccccc3)cc21
TARGET_UNDER_TEST: MAP4K2
CLASS_LABEL: Fulfilled

----------
Tested on: DCAMKL3
Construct: gene DCLK3
MEASUREMENT_SETUP: concentration: 1 μM, replicates: in singlicate; n = 1
REPORTED_PROPERTY: %Inh (%)

COMPOUND: CC(C)c1nc(-c2cccc(NS(=O)(=O)c3c(F)cccc3F)c2F)c(-c2ccnc(Nc3ccc(N4CCOCC4)nc3)n2)s1
TEST_VALUE: 82
//
COMPOUND: Cc1ccc(C(=O)Nc2ccc(Nc3ccnc4cc(-c5nccs5)ccc34)cc2O)cc1.Cl
TEST_VALUE: 0
//
COMPOUND: Nc1n[nH]c2cnc(-c3ccccc3)cc12
TEST_VALUE: 10
//
COMPOUND: CC(=O)Nc1nc2cnc(Nc3cc(NC(=O)c4cccc(C5(C#N)CC5)c4Cl)ccc3C)nc2s1
TEST_VALUE: 0
//
COMPOUND: O=C(NC1CCN(c2ccnc(Nc3ccc(F)cc3)n2)C1)c1cc2ccccc2s1 (centres unmarked)
TEST_VALUE: 7
//
COMPOUND: CC(=O)N1CCN(c2ccc(Nc3nccc(-c4sc(C(C)C)nc4-c4cccc(NS(=O)(=O)c5cccc(Cl)c5)c4)n3)cn2)CC1
TEST_VALUE: 52
//
COMPOUND: COc1cc(Nc2ncc3c(C)nc(-c4cc5ccccc5[nH]4)n3n2)cc(OC)c1OC
TEST_VALUE: 0
//
COMPOUND: Cl.Cl.NCC(C(=O)Nc1cc(Br)c(-c2ccnc3[nH]ccc23)s1)c1ccccc1 (centres unmarked)
TEST_VALUE: 0
//
COMPOUND: COc1ccc(CNC(=O)NC2CCN(c3ccnc(Nc4ccc(F)cc4)n3)CC2)cc1
TEST_VALUE: 5
//
COMPOUND: Oc1cc(Nc2ccnc3cc(I)ccc23)ccc1F
TEST_VALUE: 0
//
COMPOUND: CSc1cccc2c(-c3ccncn3)c(-c3ccc(F)cc3)nn12
TEST_VALUE: 0
//
COMPOUND: COc1ccc(Nc2nccc(N3CCC(NC(=O)Nc4cccc(OC)c4)C3)n2)cc1 (centres unmarked)
TEST_VALUE: 13
//
COMPOUND: Cl.Cl.NCC(NCc1ccc(-c2ccnc3[nH]ccc23)s1)c1ccccc1 (centres unmarked)
TEST_VALUE: 0
//
COMPOUND: c1ccc(-c2n[nH]cc2Nc2ccnc3ccccc23)nc1
TEST_VALUE: 12
//
COMPOUND: NCCCC(NC(=O)c1cc(Br)c(-c2ccnc3[nH]ccc23)s1)c1ccccc1.O=C(O)C(F)(F)F.O=C(O)C(F)(F)F (centres unmarked)
TEST_VALUE: 0
//
COMPOUND: COc1cc(Nc2nccc(-c3c(-c4cccc(NC(=O)c5c(F)cccc5F)c4)nn4ncccc34)n2)cc(OC)c1OC
TEST_VALUE: 43
//
COMPOUND: COC(=O)Nc1nc2cc(Oc3ccc(NC(=O)Nc4cc(C(F)(F)F)ccc4F)cn3)ccc2[nH]1.Cl.Cl
TEST_VALUE: 3
